- Test system: Pooled mouse microsomes
- Assay: metabolic stability in hepatic microsomes – biochemical, LC-MS/MS, human and mouse microsomes, powder samples, ADME assay for V1a-R antagonist project, late-stage follow-up (AID 743034)
- Study Conditions: pooled human/mouse liver microsomes, at 1 µM, hits give high values
Active and inactive are the calls of the source.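 The calls were made as follows: active = half-life above 60 minutes with both human and mouse liver microsomes; inactive = half-life below 60 minutes in both species.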
Measured Property: half-life

Record request: half-life value, item O=C(C1CCN(c2ccc(Cl)cn2)CC1)N(CC1CC1)c1ccc(Cl)cc1
7.8 min (inactive)
